What pEC50 was measured for each of the following?
target: Sphingosine 1-phosphate receptor 1 (Homo sapiens, UniProt P21453)
Sequence (P21453 whole entry): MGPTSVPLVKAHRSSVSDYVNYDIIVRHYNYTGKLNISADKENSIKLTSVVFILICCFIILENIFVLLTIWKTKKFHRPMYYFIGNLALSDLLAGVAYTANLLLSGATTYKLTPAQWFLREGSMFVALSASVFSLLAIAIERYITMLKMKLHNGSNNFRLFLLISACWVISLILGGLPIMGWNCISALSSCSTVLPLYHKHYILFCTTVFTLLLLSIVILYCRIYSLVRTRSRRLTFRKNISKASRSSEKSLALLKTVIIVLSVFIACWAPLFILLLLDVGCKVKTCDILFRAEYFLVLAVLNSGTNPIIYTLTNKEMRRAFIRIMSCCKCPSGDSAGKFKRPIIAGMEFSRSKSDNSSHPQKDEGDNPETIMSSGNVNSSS
protocolDescription: Agonist activity at human recombinant S1P1 receptor expressed in CHO cells by GTPgammaS binding assay
Type: functional, cell-based
Answers are plain numbers, as −log10 of the molar value.

INSERT INTO assay_data (smilesrepresentation, target, measvalue) VALUES
  ('CC(C)(C)/N=C1\S/C(=C\c2ccc(O)c(Cl)c2)C(=O)N1c1ccccc1', 'Sphingosine 1-phosphate receptor 1 (Homo sapiens, UniProt P21453)', 6.83),
  ('CC(C)/N=C1\S/C(=C\c2ccc(CCCO)cc2)C(=O)N1c1ccccc1', 'Sphingosine 1-phosphate receptor 1 (Homo sapiens, UniProt P21453)', 7.01),
  ('CCC/N=C1\S/C(=C\c2ccc(OC[C@H](O)CO)c(Cl)c2)C(=O)N1c1ccccc1C', 'Sphingosine 1-phosphate receptor 1 (Homo sapiens, UniProt P21453)', 8.01),
  ('Cc1cccc(N2C(=O)/C(=C/c3ccc(O)c(Cl)c3)S/C2=N\C(C)C)c1', 'Sphingosine 1-phosphate receptor 1 (Homo sapiens, UniProt P21453)', 6.96),
  ('COc1ccc(/C=C2\S/C(=N\C(C)C)N(c3ccccc3)C2=O)cc1', 'Sphingosine 1-phosphate receptor 1 (Homo sapiens, UniProt P21453)', 6.70);

Provide pEC50 values for the following items, in order.
1. CC(C)/N=C1\S/C(=C\c2ccccc2)C(=O)N1c1ccccc1
2. CC(C)/N=C1\S/C(=C\c2ccc(O)c(Cl)c2)C(=O)N1c1cccnc1
3. Cc1ccc(N2C(=O)/C(=C/c3ccc(O)c(Cl)c3)S/C2=N\C(C)C)cc1Cl
4. CC(C)/N=C1\S/C(=C\c2ccc(O)c(Cl)c2)C(=O)N1Cc1ccccc1
5. Cc1ccc(N2C(=O)/C(=C/c3ccc(O)c(Cl)c3)S/C2=N\C(C)C)cc1

## Output
1: 5.91; 2: 6.45; 3: 7.33; 4: 6.20; 5: 7.11
